# Target desc: T1, factor XIa (human, UniProt P03951 19-625)
# T1 construct: also called FXIa
# Assay protocol: protease amidolytic inhibition, tight-binding equation
pKi: −log10 of the molar value.

Binder: KD1-Y11T/L17R-KT (Pichia) (designed binder, 60-residue double mutant without tag; also called KD1DM; P. pastoris expressed KD1-Y11T/L17R-KT) NAEICLLPLDTGPCRARLLRYYYDRYTQSCRQFLYGGCEGNANNFYTWEACDDACWRIEK
pKi: < 5.52
